From: patent US20240383900A1

Each entry below carries its reported IC50.
# MEASUREMENT TARGET: Human CDK12 wt/CycK (Homo sapiens (Human), UniProt Q9NYV4)
# Sequence (Q9NYV4 whole entry): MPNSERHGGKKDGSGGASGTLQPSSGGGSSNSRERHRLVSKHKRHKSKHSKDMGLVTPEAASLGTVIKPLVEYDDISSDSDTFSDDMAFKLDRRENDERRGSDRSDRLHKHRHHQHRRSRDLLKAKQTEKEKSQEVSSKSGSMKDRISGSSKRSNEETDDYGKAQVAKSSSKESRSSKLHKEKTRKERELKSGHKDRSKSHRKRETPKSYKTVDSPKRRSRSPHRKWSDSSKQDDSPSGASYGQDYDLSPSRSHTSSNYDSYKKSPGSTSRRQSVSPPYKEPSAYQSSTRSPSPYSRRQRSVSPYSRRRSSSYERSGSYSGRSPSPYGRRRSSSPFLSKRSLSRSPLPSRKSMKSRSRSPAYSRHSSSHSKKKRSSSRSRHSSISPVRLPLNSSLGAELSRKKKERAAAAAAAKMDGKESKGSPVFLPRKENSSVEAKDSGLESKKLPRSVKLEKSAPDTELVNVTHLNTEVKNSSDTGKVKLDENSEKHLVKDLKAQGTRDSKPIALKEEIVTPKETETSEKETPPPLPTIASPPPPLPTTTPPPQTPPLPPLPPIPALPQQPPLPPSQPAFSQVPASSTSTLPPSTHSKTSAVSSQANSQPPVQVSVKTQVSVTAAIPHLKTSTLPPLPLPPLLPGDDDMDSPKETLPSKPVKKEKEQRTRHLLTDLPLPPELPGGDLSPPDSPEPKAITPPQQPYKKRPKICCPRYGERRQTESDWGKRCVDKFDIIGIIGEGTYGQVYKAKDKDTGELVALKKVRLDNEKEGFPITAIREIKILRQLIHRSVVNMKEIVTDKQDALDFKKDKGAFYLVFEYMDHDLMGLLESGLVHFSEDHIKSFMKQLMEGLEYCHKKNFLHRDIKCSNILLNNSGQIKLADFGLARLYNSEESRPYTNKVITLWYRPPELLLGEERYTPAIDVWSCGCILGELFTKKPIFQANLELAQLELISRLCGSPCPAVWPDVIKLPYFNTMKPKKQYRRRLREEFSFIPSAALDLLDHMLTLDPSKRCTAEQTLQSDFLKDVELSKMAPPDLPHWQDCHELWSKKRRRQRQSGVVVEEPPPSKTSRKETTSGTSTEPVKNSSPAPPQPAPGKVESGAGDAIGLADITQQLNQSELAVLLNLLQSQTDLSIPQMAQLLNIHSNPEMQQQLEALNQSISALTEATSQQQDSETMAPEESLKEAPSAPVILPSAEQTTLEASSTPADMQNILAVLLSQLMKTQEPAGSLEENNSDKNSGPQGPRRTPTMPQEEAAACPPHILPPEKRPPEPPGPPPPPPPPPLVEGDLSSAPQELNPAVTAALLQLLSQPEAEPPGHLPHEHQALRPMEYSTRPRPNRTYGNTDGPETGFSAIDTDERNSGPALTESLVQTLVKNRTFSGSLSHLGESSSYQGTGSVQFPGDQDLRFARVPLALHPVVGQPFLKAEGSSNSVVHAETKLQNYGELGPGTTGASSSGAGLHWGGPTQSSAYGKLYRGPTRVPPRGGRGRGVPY
# Sequence (O75909 whole entry partner): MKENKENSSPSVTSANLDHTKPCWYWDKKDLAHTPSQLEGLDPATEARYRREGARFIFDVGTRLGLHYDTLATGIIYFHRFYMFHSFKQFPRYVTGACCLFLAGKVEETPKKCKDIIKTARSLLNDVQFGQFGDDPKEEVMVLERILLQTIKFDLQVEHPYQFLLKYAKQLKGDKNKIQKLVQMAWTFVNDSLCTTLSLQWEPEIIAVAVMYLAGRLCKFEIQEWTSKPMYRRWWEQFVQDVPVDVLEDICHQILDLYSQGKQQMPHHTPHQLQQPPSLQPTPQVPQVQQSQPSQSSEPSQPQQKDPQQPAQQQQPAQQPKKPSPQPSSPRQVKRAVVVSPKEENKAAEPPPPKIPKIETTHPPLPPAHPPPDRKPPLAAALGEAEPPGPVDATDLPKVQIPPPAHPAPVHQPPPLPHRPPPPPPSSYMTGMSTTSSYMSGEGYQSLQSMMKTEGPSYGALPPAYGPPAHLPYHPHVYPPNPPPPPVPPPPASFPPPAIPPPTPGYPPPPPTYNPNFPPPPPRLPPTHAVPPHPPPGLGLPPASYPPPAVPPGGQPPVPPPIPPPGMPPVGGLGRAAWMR
# TEST METHOD NOTES: Radiometric protein kinase assay (33PanQinase Activity Assay), CDK12
# Type: biochemical
# DETAILS: read-out: CKD12 Biochemical Potency IC50
Numeric answer only, unit µM assumed.

{"STRUCTURE NOTATION": "c1ccc(-c2ccc(CNc3cc(N[C@H]4CCCNC4)nc4c(C5CC5)cnn34)cc2)nc1", "MEASUREMENT TARGET": "Human CDK12 wt/CycK (Homo sapiens (Human), UniProt Q9NYV4)", "READOUT KIND": "IC50", "QUANTITATIVE READOUT": 0.051}
{"STRUCTURE NOTATION": "CC(C)c1cnn2c(NCc3ccc(-c4ccncn4)cc3)cc(NC[C@H]3CCNC[C@@H]3O)nc12", "MEASUREMENT TARGET": "Human CDK12 wt/CycK (Homo sapiens (Human), UniProt Q9NYV4)", "READOUT KIND": "IC50", "QUANTITATIVE READOUT": 0.052}
{"STRUCTURE NOTATION": "N#Cc1cnn2c(NCc3ccc(-c4ccccn4)cc3)cc(N[C@H]3CCNC3)nc12", "MEASUREMENT TARGET": "Human CDK12 wt/CycK (Homo sapiens (Human), UniProt Q9NYV4)", "READOUT KIND": "IC50", "QUANTITATIVE READOUT": 0.011}

Look up IC50 for this compound: "c1ccc(-c2ccc(CNc3cc(N4CCOCC4)nc4c(C5CC5)cnn34)cc2)nc1"
1.05

Look up IC50 for this compound: "O[C@H]1CNCC[C@@H]1CNc1cc(NCc2ccc(-c3ccccc3)nc2)n2ncc(C3CC3)c2n1"
0.045

Look up IC50 for this compound: "O=C1C[C@H](Nc2cc(NCc3ccc(-c4ccccn4)cc3)n3ncc(C4CC4)c3n2)CN1"
0.145

Look up IC50 for this compound: "c1cnc(-c2ccc(CNc3cc(N[C@H]4CCNC4)nc4c(C5CC5)cnn34)cc2)nc1"
0.023

Look up IC50 for this compound: "c1ccc(-c2ccc(CNc3cc(O[C@H]4CCCNC4)nc4c(C5CC5)cnn34)cc2)nc1"
0.018

* * *

# MEASUREMENT TARGET: Human CDK12 wt/CycK (Homo sapiens (Human), UniProt Q9NYV4)
# TEST METHOD NOTES: Radiometric protein kinase assay (33PanQinase Activity Assay), CDK12
# Assay type: biochemical
# DETAILS: read-out: CKD12 Biochemical Potency IC50
Could you mark each record 1 if its IC50 falls strictly under 30 nM, and 0 if it equals or exceeds it?

Here are 4 compounds together with their reported answers.
{"STRUCTURE NOTATION": "O[C@H]1CNCC[C@@H]1CNc1cc(NCc2ccc(-c3ncco3)cc2)n2ncc(C3CC3)c2n1", "CLASSIFICATION": 0}
{"STRUCTURE NOTATION": "c1ccc(-c2ccc(CNc3cc(-c4ccn[nH]4)nc4c(C5CC5)cnn34)cc2)nc1", "CLASSIFICATION": 0}
{"STRUCTURE NOTATION": "N#Cc1cnn2c(NCc3ccc(-c4ccccn4)cc3)cc(N[C@H]3CCCNC3)nc12", "CLASSIFICATION": 1}
{"STRUCTURE NOTATION": "O[C@H]1CNCC[C@@H]1CNc1cc(NCc2c(F)cc(-c3ccccc3)cc2F)n2ncc(C3CC3)c2n1", "CLASSIFICATION": 0}

Say whether its IC50 is strictly beneath 30 nM. Entry: "O[C@H]1CNCC[C@@H]1CNc1cc(NCc2ccc(-c3ccccn3)cc2)n2ncc(Cl)c2n1"
1

Say whether its IC50 is strictly beneath 30 nM. Entry: "OC1CCN(c2cc(NCc3ccc(-c4ccccn4)cc3)n3ncc(C4CC4)c3n2)CC1"
0

Say whether its IC50 is strictly beneath 30 nM. Entry: "OC1CN(c2cc(NCc3ccc(-c4ccccn4)cc3)n3ncc(C4CC4)c3n2)C1"
0

Say whether its IC50 is strictly beneath 30 nM. Entry: "c1ccc(-c2ccc(CNc3cc(NC4CNC4)nc4c(C5CC5)cnn34)cc2)nc1"
0

* * *

# MEASUREMENT TARGET: Human CDK12 wt/CycK (Homo sapiens (Human), UniProt Q9NYV4)
# TEST METHOD NOTES: Radiometric protein kinase assay (33PanQinase Activity Assay), CDK12
# Assay type: biochemical
# DETAILS: ratio of CDK7 IC50 to CDK12 IC50; greater than 1 indicates selectivity for CDK12
READOUT KIND: CDK7/CDK12
Please reply with the number alone, leaving off any unit.

Look up CDK7/CDK12 for this compound: "c1ccc(-c2ccc(CNc3cc(N4CC5CC(C4)N5)nc4c(C5CC5)cnn34)cc2)nc1"
8.0

Look up CDK7/CDK12 for this compound: "c1ccc(-c2ccc(CNc3cc(N[C@@H]4CCNC4)nc4c(C5CC5)cnn34)cc2)nc1"
23.9

* * *

Each entry below carries its reported IC50.
# Test system: A673 cells
# TEST METHOD NOTES: Cytotoxicity in A673 cells (Cell Titer Glo viability)
# Assay type: cell-based
# DETAILS: Homo sapiens, A673; read-out: Cellular Potency IC50 (nM) (in A673 cells)
Numeric answer only, unit nM assumed.

Examples with answers:
{"STRUCTURE NOTATION": "O[C@H]1CNCC[C@@H]1CNc1cc(NCc2ccc(-n3cccn3)cc2)n2ncc(C3CC3)c2n1", "IC50 (nM)": 1.3}
{"STRUCTURE NOTATION": "CC(C)c1cnn2c(NCc3ccc(-c4ccncc4)cc3)cc(NC[C@H]3CCNC[C@@H]3O)nc12", "IC50 (nM)": 127}
{"STRUCTURE NOTATION": "O[C@H]1CNCC[C@@H]1CNc1cc(NCc2ccc(-c3ncccc3C(F)(F)F)cc2)n2ncc(C3CC3)c2n1", "IC50 (nM)": 312}
{"STRUCTURE NOTATION": "CN(c1cc(NCc2ccc(-c3ccccn3)cc2)n2ncc(C3CC3)c2n1)C1CCNCC1", "IC50 (nM)": 2.8}
{"STRUCTURE NOTATION": "c1cnn(-c2ccc(CNc3cc(OC4CNC4)nc4c(C5CC5)cnn34)cc2)c1", "IC50 (nM)": 3.5}

# returns recorded IC50 (system: A673 cells) for "Cc1n[nH]cc1-c1cc(NCc2ccc(-c3ccccn3)cc2)n2ncc(C3CC3)c2n1"
43.5

# returns recorded IC50 (system: A673 cells) for "O[C@H]1CNCC[C@@H]1CNc1cc(NCc2ccc(-c3ccccn3)cc2F)n2ncc(C3CC3)c2n1"
3.3

* * *

# MEASUREMENT TARGET: Human CDK12 wt/CycK (Homo sapiens (Human), UniProt Q9NYV4)
# TEST METHOD NOTES: Radiometric protein kinase assay (33PanQinase Activity Assay), CDK12
# Format: biochemical
# DETAILS: ATP 0.3 μM; read-out: CDK12 IC50
# Experimental: A radiometric protein kinase assay (^33PanQinase® Activity Assay) was used for measuring the kinase activity of the two protein kinases (CDK12/CDK7). All kinase assays were performed in 96-well FlashPlates™ from PerkinElmer (Boston, MA, USA) in a 50 μL reaction volume. […] The reaction mixture was incubated at 30° C. for 60 min and then stopped by the addition of 2% (v/v) H3PO4. […] Incorporation of ^33Pi was determined with a microplate scintillation count (Microbeta, Wallac). […]
Each entry below carries its reported IC50.
Numeric answer only, unit nM assumed.

Look up IC50 for this compound: COc1cc(CNc2cc(NC[C@H]3CCNC[C@@H]3O)nc3c(C4CC4)cnn23)ccc1-c1ccccn1 [PPA-015]
235

Look up IC50 for this compound: NC1CN(c2cc(NCc3ccc(-c4ccccn4)cc3)n3ncc(C4CC4)c3n2)C1 [PPA-057]
1240

Look up IC50 for this compound: O[C@H]1CNCC[C@@H]1CNc1cc(NCc2ccc(-c3cscn3)cc2)n2ncc(C3CC3)c2n1 [PPA-035]
52

Look up IC50 for this compound: c1ccc(-c2ccc(CNc3cc(N4CC5(CNC5)C4)nc4c(C5CC5)cnn34)cc2)nc1 [PPA-084]
1120

* * *

Each entry below carries its reported CDK7/CDK12.
# MEASUREMENT TARGET: Human CDK12 wt/CycK (Homo sapiens (Human))
# TEST METHOD NOTES: Radiometric protein kinase assay (33PanQinase Activity Assay), CDK12
# Format: biochemical
# DETAILS: ratio of CDK7 IC50 to CDK12 IC50; greater than 1 indicates selectivity for CDK12
Please reply with the number alone, leaving off any unit.

Look up CDK7/CDK12 for this molecule: "O[C@H]1CNCC[C@@H]1CNc1cc(NCc2ccc(-c3ccccc3)cn2)n2ncc(C3CC3)c2n1"
4.4

Look up CDK7/CDK12 for this molecule: "O[C@H]1CNCC[C@@H]1CNc1cc(NCc2ccc(-c3ncccc3C(F)(F)F)cc2)n2ncc(C3CC3)c2n1"
1.6

Look up CDK7/CDK12 for this molecule: "O[C@H]1CNCC[C@@H]1CNc1cc(NCc2cn(-c3ccccn3)cn2)n2ncc(C3CC3)c2n1"
7.5

Look up CDK7/CDK12 for this molecule: "CCc1cnn2c(NCc3ccc(-c4ccccn4)cc3)cc(NC[C@H]3CCNC[C@@H]3O)nc12"
3.3

Look up CDK7/CDK12 for this molecule: "c1cnc(-c2ccc(CNc3cc(N[C@H]4CCNC4)nc4c(C5CC5)cnn34)cc2)nc1"
18.2

Look up CDK7/CDK12 for this molecule: "c1ccc(-c2ccc(CNc3cc(OC4CNC4)nc4c(C5CC5)cnn34)cc2)nc1"
30.7

Look up CDK7/CDK12 for this molecule: "O[C@H]1CNCC[C@@H]1CNc1cc(NCc2ccc(-c3ccccc3)cc2)n2ncc(C3CC3)c2n1"
4.0

Look up CDK7/CDK12 for this molecule: "CCc1cnn2c(NCc3ccc(-c4ccccc4)cc3)cc(NC[C@H]3CCNC[C@@H]3O)nc12"
2.8
